Recorded IC50, one value per entry.
biological target: Collagenase from Clostridium histolyticum; assay: absorbance […] nm, FALGPA hydrolysis; conditions: N-[3-(2-furyl)acryloyl]-Leu-Gly-Pro-Ala 1 mM, Tricine 50 mM pH 7.5, 37°C, 20 min pre-incubation
The reply should contain only the number, in µM.

# Compound, IC50, µM
data = [
    ("COc1c(O)cc2oc3cc(O)c(CC=C(C)C)c(O)c3c(=O)c2c1CC=C(C)C [Alpha-mangostin]", 23.8),
    ("CC(C)=CCc1c(O)cc2oc3cc(O)c(O)c(CCC(C)(C)O)c3c(=O)c2c1O [Garcinone C]", 79.2),
    ("CC(C)=CCc1c(O)cc2oc3cc(O)c(O)c(CC=C(C)C)c3c(=O)c2c1O [Gamma-mangostin]", 140),
]

For the compound COc1c(O)cc2oc3cc(O)c(CC=C(C)C)c(O)c3c(=O)c2c1CCC(C)(C)O [Garcinone D] , what IC50 is on record? 159

----------
Target: bovine testes hyaluronidase type I-S (Bos taurus)
Sequence (F1MTV1 36-553): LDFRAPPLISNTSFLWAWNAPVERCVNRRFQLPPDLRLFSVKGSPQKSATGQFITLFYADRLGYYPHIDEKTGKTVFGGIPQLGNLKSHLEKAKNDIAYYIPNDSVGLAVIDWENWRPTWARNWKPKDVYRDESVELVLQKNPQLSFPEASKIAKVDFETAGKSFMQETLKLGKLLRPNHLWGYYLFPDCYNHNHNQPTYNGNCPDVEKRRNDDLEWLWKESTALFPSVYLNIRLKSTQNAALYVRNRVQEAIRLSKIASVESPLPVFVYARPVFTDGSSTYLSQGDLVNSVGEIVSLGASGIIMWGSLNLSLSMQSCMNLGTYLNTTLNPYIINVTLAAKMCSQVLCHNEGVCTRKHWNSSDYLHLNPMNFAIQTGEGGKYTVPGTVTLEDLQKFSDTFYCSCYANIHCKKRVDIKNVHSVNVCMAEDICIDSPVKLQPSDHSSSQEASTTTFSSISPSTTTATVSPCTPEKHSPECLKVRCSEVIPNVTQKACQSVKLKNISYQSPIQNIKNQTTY
Recorded IC50, one value per entry.
The reply should contain only the number, in µM.

# Compound, Unit name, IC50
rows = [
    ("COc1c(O)cc2oc3cc(O)c(CC=C(C)C)c(O)c3c(=O)c2c1CCC(C)(C)O [Garcinone D]", "µM", 204),
    ("CC(C)=CCc1c(O)cc2oc3cc(O)c(O)c(CCC(C)(C)O)c3c(=O)c2c1O [Garcinone C]", "µM", 180),
    ("COc1c(O)cc2oc3cc(O)c(CC=C(C)C)c(O)c3c(=O)c2c1CC=C(C)C [Alpha-mangostin]", "µM", 39.5),
]

Shift focus to the following entry.
Form entry - test system: bovine testes hyaluronidase type I-S (Bos taurus); read-out: IC50; compound: CC(C)=CCc1c(O)cc2oc3cc(O)c(O)c(CC=C(C)C)c3c(=O)c2c1O [Gamma-mangostin] 60.2

----------
biological target: mushroom tyrosinase; construct: PPO3 (2Y9X) is only the docking model; assay: absorbance […] nm, L-DOPA oxidation; conditions: L-DOPA 1.5 mM stock (20 μL added), potassium phosphate 20 mM pH 6.8, room temperature, 15 min pre-incubation
Measured quantity: pIC50
Please keep in mind that pIC50 is minus log10 of the molar concentration; only the number is needed.

# Compound, pIC50
rows = [
    ("COc1c(O)cc2oc3cc(O)c(CC=C(C)C)c(O)c3c(=O)c2c1CCC(C)(C)O [Garcinone D]", 3.60),
    ("CC(C)=CCc1c(O)cc2oc3cc(O)c(O)c(CCC(C)(C)O)c3c(=O)c2c1O [Garcinone C]", 3.80),
    ("COc1c(O)cc2oc3cc(O)c(CC=C(C)C)c(O)c3c(=O)c2c1CC=C(C)C [Alpha-mangostin]", 3.76),
]

For the compound CC(C)=CCc1c(O)cc2oc3cc(O)c(O)c(CC=C(C)C)c3c(=O)c2c1O [Gamma-mangostin] , what pIC50 is on record? 3.90
